- Tested on: HEK-293T
- PROTOCOL DETAILS: Multiplex assay against HEK293T
- Type: toxicity, cell-based
- DETAILS: human, 24 h, 1 µM, compound concentration 1 uM, replicate 1
ATTRIBUTE MEASURED: Population Membrane Permeable-Phenotype (%)
Write it as a number; the unit % goes unstated.

Worked cases, Population Membrane Permeable-Phenotype (%) given:
CN1CCN(c2nc3cc(C(F)(F)F)ccc3n3cccc23)CC1.O=C(O)/C=C\C(=O)O.O=C(O)/C=C\C(=O)O; 1
O=C(O)Cc1ccccc1Nc1c(Cl)cccc1Cl; 0
COc1cc(C(=O)N(CCCc2ccccc2)Cc2ccc(CC(=O)O)cc2)cc(OC)c1C; 0
CSc1ccccc1N1CCN(CCCCCC(=O)NC2CCCc3ccccc32)CC1.Cl (centres undefined); 0
CCNC1(C(N)=O)CCN(c2ncnc3c2nc(-c2ccccc2Cl)n3-c2ccc(Cl)cc2)CC1; 0

Q) Given the entry CC(=O)NCCc1c(Cc2ccccc2)[nH]c2ccccc12 , report its measured Population Membrane Permeable-Phenotype (%).
A) 0

Q) Given the entry CN(C)CCCc1cc(C(=O)Nc2ccc(-c3ccncc3)cc2)ccc1O.Cl.Cl , report its measured Population Membrane Permeable-Phenotype (%).
A) 1

Q) Given the entry CNC[C@H](O)c1ccc(O)c(O)c1 [EPINEPHRINE] , report its measured Population Membrane Permeable-Phenotype (%).
A) 0

Q) Given the entry CC(C)(C)c1ccc(S(=O)(=O)Nc2ccc(Cl)cc2C(=O)c2cc[n+]([O-])cc2)cc1 , report its measured Population Membrane Permeable-Phenotype (%).
A) 0

Q) Given the entry Cc1ccc(/C(=C\CN2CCCC2)c2ccccn2)cc1 , report its measured Population Membrane Permeable-Phenotype (%).
A) 0

----------
- Tested on: HEK-293T
- PROTOCOL DETAILS: Multiplex assay against HEK293T
- Assay type: toxicity, cell-based
- DETAILS: human, 24 h, 1 µM, compound concentration 1 uM, replicate 2
Field 'label' (enum: Fulfilled / Not fulfilled). Set to Fulfilled when Population Mitotic Cells (%) is strictly under 60%; else Not fulfilled.

Example cases with answers are listed next.
Cc1nc2ccc(Oc3ccc(F)cc3)cc2c(=O)n1C[C@H]1CCCN(C(C)C)C1.Cl; Not fulfilled
N#Cc1c(N)nc(SCc2csc(-c3ccc(Cl)cc3)n2)c(C#N)c1-c1ccc(OCCO)cc1; Not fulfilled
CN1CCN2c3ncccc3Cc3ccccc3C2C1 (stereo not drawn); Fulfilled
COc1cc(C(=O)N(CCCc2ccccc2)Cc2ccc(CC(=O)O)cc2)cc(OC)c1C; Fulfilled
COc1cc(NC(=O)CCN2CCC(OC(=O)Nc3ccccc3-c3ccccc3)CC2)c(Cl)cc1CNC[C@H](O)c1ccc(O)c2[nH]c(=O)ccc12; Fulfilled

Q) Given the entry CC(C)(C)c1ccc(S(=O)(=O)Nc2ccc(Cl)cc2C(=O)c2cc[n+]([O-])cc2)cc1 , would its reported Population Mitotic Cells (%) be below 60%?
A) Not fulfilled

Q) Given the entry Cc1ccc(-c2ccc(F)cc2COc2ccc(CCC(=O)O)cc2)cc1 , would its reported Population Mitotic Cells (%) be below 60%?
A) Fulfilled

Q) Given the entry Oc1c(CN2CCN(c3ccccn3)CC2)cc(Cl)c2cccnc12 , would its reported Population Mitotic Cells (%) be below 60%?
A) Not fulfilled

Q) Given the entry O=C(O)Cc1ccccc1Nc1c(Cl)cccc1Cl , would its reported Population Mitotic Cells (%) be below 60%?
A) Fulfilled

Q) Given the entry C[C@@H]1C[C@H]2[C@@H]3CCC4=CC(=O)C=C[C@]4(C)[C@@]3(F)[C@@H](O)C[C@]2(C)[C@@]1(O)C(=O)CO , would its reported Population Mitotic Cells (%) be below 60%?
A) Fulfilled

----------
Measured Population Fragmented Nuclei (%) of individual entries
- Tested on: U2OS
- PROTOCOL DETAILS: Multiplex assay against U2OS
- Type: toxicity, cell-based
- DETAILS: human, 48 h, 10 µM, compound concentration 10 uM, replicate 2
// unit must come after the numeric part

Worked cases, Population Fragmented Nuclei (%) given:
c1cc(OCCCN2CCCCC2)ccc1CN1CCCCC1; 14%
CN1CCN2c3ncccc3Cc3ccccc3C2C1 (stereo not drawn); 12%

Q) Given the entry COc1ccc2c(c1)C(C(=O)N(Cc1ccc(N(C)C)cc1)c1ccc(C(C)C)cc1)CCC2.Cl (stereo not drawn) , report its measured Population Fragmented Nuclei (%).
A) 26%

Q) Given the entry Cc1ccc(-c2ccc(F)cc2COc2ccc(CCC(=O)O)cc2)cc1 , report its measured Population Fragmented Nuclei (%).
A) 16%

----------
- Tested on: HEK-293T
- PROTOCOL DETAILS: Multiplex assay against HEK293T
- Assay type: toxicity, cell-based
- DETAILS: human, 24 h, 10 µM, compound concentration 10 uM, replicate 1
ATTRIBUTE MEASURED: Population Hoechst High Intensity Objects (%)
Write it as a number; the unit % goes unstated.

O=C1COc2nccc(-c3ccccc3F)c2CN1Cc1cc(C(F)(F)F)cc(C(F)(F)F)c1; 5

Q) Given the entry O=C(O)c1cc2ccccc2c(Cc2c(O)c(C(=O)O)cc3ccccc23)c1O , report its measured Population Hoechst High Intensity Objects (%).
A) 5

Q) Given the entry COc1cc(NC(=O)CCN2CCC(OC(=O)Nc3ccccc3-c3ccccc3)CC2)c(Cl)cc1CNC[C@H](O)c1ccc(O)c2[nH]c(=O)ccc12 , report its measured Population Hoechst High Intensity Objects (%).
A) 33

Q) Given the entry O=C(O)Cc1ccccc1Nc1c(Cl)cccc1Cl , report its measured Population Hoechst High Intensity Objects (%).
A) 4

Q) Given the entry c1cc(OCCCN2CCCCC2)ccc1CN1CCCCC1 , report its measured Population Hoechst High Intensity Objects (%).
A) 6

Q) Given the entry COc1c(C)cc(NC(=O)c2nn(Cc3ccc(F)cc3)c3c2CN(C(=O)c2ccc[nH]2)C[C@]3(C)C(N)=O)cc1C , report its measured Population Hoechst High Intensity Objects (%).
A) 11

Q) Given the entry CSc1ccccc1N1CCN(CCCCCC(=O)NC2CCCc3ccccc32)CC1.Cl (stereo unspecified) , report its measured Population Hoechst High Intensity Objects (%).
A) 21

Q) Given the entry COc1cc(C(=O)N(CCCc2ccccc2)Cc2ccc(CC(=O)O)cc2)cc(OC)c1C , report its measured Population Hoechst High Intensity Objects (%).
A) 7

Q) Given the entry Cc1ccccc1C(=O)Nc1ccc(C(=O)N2CCCC(N(C)C)c3ccccc32)cc1.Cl (stereo unspecified) , report its measured Population Hoechst High Intensity Objects (%).
A) 7

Q) Given the entry COc1ccccc1N1CCN(CCCCNC(=O)c2ccc3ccccc3c2)CC1.Cl , report its measured Population Hoechst High Intensity Objects (%).
A) 13

----------
- Tested on: U2OS
- PROTOCOL DETAILS: Multiplex assay against U2OS
- Format: toxicity, cell-based
- DETAILS: human, 24 h, 1 µM, compound concentration 1 uM, replicate 1
ATTRIBUTE MEASURED: Population Pyknosed Nuclei (%)
Write it as a number; the unit % goes unstated.

Q) Given the entry O=S(=O)(c1ccccc1)c1cnc2c(N3CCNCC3)cccc2c1 [INTEPIRDINE] , report its measured Population Pyknosed Nuclei (%).
A) 9

Q) Given the entry Cc1ccc(/C(=C\CN2CCCC2)c2ccccn2)cc1 , report its measured Population Pyknosed Nuclei (%).
A) 9

Q) Given the entry COc1cc(C(=O)N(CCCc2ccccc2)Cc2ccc(CC(=O)O)cc2)cc(OC)c1C , report its measured Population Pyknosed Nuclei (%).
A) 9

----------
- Tested on: Fibroblast
- PROTOCOL DETAILS: Multiplex assay against human fibroblast
- Format: toxicity, cell-based
- DETAILS: 12 h, 10 µM, compound concentration 10 uM, replicate 1
Measured Population Apoptotic (%) of individual entries
Write it as a number; the unit % goes unstated.

Worked cases, Population Apoptotic (%) given:
COc1ccc2c(c1)C(C(=O)N(Cc1ccc(N(C)C)cc1)c1ccc(C(C)C)cc1)CCC2.Cl (configuration not stated); 58
Oc1c(CN2CCN(c3ccccn3)CC2)cc(Cl)c2cccnc12; 41
CN1CCN2c3ncccc3Cc3ccccc3C2C1 (configuration not stated); 44
CC[C@H]1OC(=O)[C@H](C)[C@@H](O[C@H]2C[C@@](C)(OC)[C@@H](O)[C@H](C)O2)[C@H](C)[C@@H](O[C@@H]2O[C@H](C)C[C@H](N(C)C)[C@H]2O)[C@@]2(C)CC(C)=C(O2)[C@H](C)[C@@H](O)[C@]1(C)O; 48
O=S(=O)(c1ccccc1)c1cnc2c(N3CCNCC3)cccc2c1 [INTEPIRDINE]; 75
Cc1nc2ccc(Oc3ccc(F)cc3)cc2c(=O)n1C[C@H]1CCCN(C(C)C)C1.Cl; 53

Read the next record carefully.
Q) Given the entry COc1cc(C(=O)N(CCCc2ccccc2)Cc2ccc(CC(=O)O)cc2)cc(OC)c1C , report its measured Population Apoptotic (%).
A) 41

----------
- Test system: HEK-293T
- PROTOCOL DETAILS: Multiplex assay against HEK293T
- Assay type: toxicity, cell-based
- DETAILS: human, 48 h, 10 µM, compound concentration 10 uM, replicate 2
ATTRIBUTE MEASURED: Population Mitotic Cells (%)
Write it as a number; the unit % goes unstated.

Cc1ccc(/C(=C\CN2CCCC2)c2ccccn2)cc1; 66
CN1CCN2c3ncccc3Cc3ccccc3C2C1 (centres undefined); 69
Oc1c(CN2CCN(c3ccccn3)CC2)cc(Cl)c2cccnc12; 5
CNC[C@H](O)c1ccc(O)c(O)c1 [EPINEPHRINE]; 30
O=C(NCC(=O)N1CC[C@H](N[C@H]2CC[C@@](O)(c3ccc(-c4ncccn4)cn3)CC2)C1)c1cccc(C(F)(F)F)c1; 56

Q) Enter reported Population Mitotic Cells (%) observed with HEK-293T for CC1(COc2ccc3c(c2)ncn3-c2ccc3cccc(N4CCC(N)CC4)c3n2)COC1
A) 15

Q) Enter reported Population Mitotic Cells (%) observed with HEK-293T for N#Cc1c(N)nc(SCc2csc(-c3ccc(Cl)cc3)n2)c(C#N)c1-c1ccc(OCCO)cc1
A) 36
